Each entry below lists one item and its recorded kon value.
Biological target: neuropilin-1 (NRP1), analyte in SPR (UniProt O14786 22-644, limits assumed)
Assay: SPR, Carterra LSA, antibody coupled
Description: SPR experiments were performed on a Carterra LSA SPR biosensor equipped with a HC30M chip at 25° C. in HBS-TE. Antibodies were diluted to 10 μg/mL and amine-coupled to the sensor chip by EDC/NHS activation, followed by ethanolamine HCl quenching. Increasing concentrations of analyte were flowed over the sensor chip in HBS-TE with 0.5 mg/mL BSA with 5-minute association and 15-minute dissociation. […] Data were analyzed in Carterra's Kinetics Tool software with 1:1 binding model.

# Binder, kon [M⁻¹ s⁻¹]
measured = [
    ("NRP1-25 (VHH) VHH: EVQLVESGGGLVQPGGSLRLSCAASGRTSNIYAMGWFRQAPGKERELVAAIRWSGVETYYADSVKGRFTISADNSKNTAYLQMNSLKPEDTAVYYCAADRMYRPVGNQYDWGQGTLVTVSS", 11700),
    ("NRP1-33 (VHH) VHH: EVQLVESGGGLVQPGGSLRLSCAASGRTFSSGTMGWFRQASGKEREFVARINSDGSTNYADSVKGRFTISADNSKNTAYLQMNSLKPEDTAVYYCAKWSSSWYGYYYYGMDVWGQGTLVTVSS", "1.55e+06"),
    ("NRP1-204 (antibody, IgG2, V domains shown) VH: EVQLLESGGGLVQPGGSLRLSCAASGFTFSAFAMSWVRQAPGKGLEWVSGTSGSGGSTYYADSVKGRFTISRDNSKNTLYLQMNSLRAEDTAVYYCARHRAYSYGLDYWGQGTLVTVSS VL: DIQMTQSPSSLSASVGDRVTITCRARQSISTYLNWYQQKPGKAPKLLIYSASTLESGVPSRFSGSGSGTDFTLTISSLQPEDFATYYCQQSYRTPWTFGGGTKVEIK", 220),
]
